system: microorganisms; assay: Peptide activities: targeting/binding, antimicrobial, growth or phenotype altering (Tables 7, 8); type: cell-based; conditions: peptides having multiple activities
measured endpoint: Activities

substance	measured
FQKPFTGEEVEDFQDDDEIPTII [PF-437]	G M
PF-406: peptide having multiple activities (chain 1 YLEMNADYLSNMDIFDELWEKYLENNK; chain 2 YLEMNADYLSNMDIFDELWEKYLENNK; Peptide with targeting and/or antimicrobial activity)	G B
PF-070: peptide having multiple activities (chain 1 SMVKSEIVDLLNGEDNDD; chain 2 SMVKSEIVDLLNGEDNDD; Peptide with targeting and/or antimicrobial activity)	G B
PF-045: peptide having multiple activities (LDINDYRSTY; Peptide with targeting and/or antimicrobial activity)	G B
PF-416: peptide having multiple activities (chain 1 SKAGLYGKIERSDKRE; chain 2 SKAGLYGKIERSDKRE; Peptide with targeting and/or antimicrobial activity)	G B

----------
tested on: microorganisms; assay: Targeting peptide binding to target microorganisms (Tables 3, 10, 12); conditions: peptide binding in aqueous buffers that varied with peptide solubility; preferably 1x PBS
measured endpoint: Target(s) (microorganism bound by the targeting peptide)

substance	measured
1T-159 (IFSLHHFALICSEMGTFAVSKRAKYKWEVL; Peptide with targeting and/or antimicrobial activity)	P. gingivalis
1T-71 (KIDTNQWPPNKEG; Peptide with targeting and/or antimicrobial activity)	P. aeruginosa
1T-170 (AYGKVFSMDIMLSENDKLIVLRISHHSAWH; Peptide with targeting and/or antimicrobial activity)	P. gingivalis
1T-50 (HSDEPIPNILFKSDSVH; Peptide with targeting and/or antimicrobial activity)	P. aeruginosa
1T-53 (SDILAEMFEKGELQTLVKDAAAKANA; Peptide with targeting and/or antimicrobial activity)	P. aeruginosa
1T-72 (EPTDGVACKER; Peptide with targeting and/or antimicrobial activity)	P. aeruginosa

----------
system: microorganisms; assay: Morphology, biofilm and growth disrupting peptides (Table 5); format: cell-based; design: key: A: Peptide aggregates; B: Less hyphal formation; Clumps; Diffuse clumps and small polyps; F: Diffuse growth; H: Thin; I: Growth inhibition; Microcolony formation; Rippled; Small polyps; Thick; W: Halo formation on top, microlonies on bottom; details: E. faecalis
measured endpoint: Organism, effect: E. faecalis

substance	measured
PF-396: peptide having multiple activities (chain 1 LIYTILASLGVLTVLQAILGREPKAVKA; chain 2 LIYTILASLGVLTVLQAILGREPKAVKA; Peptide with targeting and/or antimicrobial activity)	E. faecalis (C)
PF-386: peptide having multiple activities (chain 1 FTLTLITTIVAILNYKDKKK; chain 2 FTLTLITTIVAILNYKDKKK; Peptide with targeting and/or antimicrobial activity)	E. faecalis (C)
PF-392: peptide having multiple activities (chain 1 DPAGCNDIVRKYCK; chain 2 DPAGCNDIVRKYCK; Peptide with targeting and/or antimicrobial activity)	E. faecalis (A)
PF-376: peptide having multiple activities (chain 1 MTVFEALMLAIAFATLIVKISNKNDKK; chain 2 MTVFEALMLAIAFATLIVKISNKNDKK; Peptide with targeting and/or antimicrobial activity)	E. faecalis (C)
PF-057: peptide having multiple activities (TMIVISIPRFEEYMKARHKKWM; Peptide with targeting and/or antimicrobial activity)	E. faecalis (A)
PF-379: peptide having multiple activities (chain 1 VFVVLFIIYLASKLLTKLFPIKK; chain 2 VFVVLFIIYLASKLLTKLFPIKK; Peptide with targeting and/or antimicrobial activity)	E. faecalis (C)
PF-398: peptide having multiple activities (chain 1 ILVVLAGILLVVLSYVGISKFKMNC; chain 2 ILVVLAGILLVVLSYVGISKFKMNC; Peptide with targeting and/or antimicrobial activity)	E. faecalis (C)

Data credit: patent US20110039763A1
